target: T1, human FcRn/b2M (human, UniProt P61769 21-119, biotinylated); experiment: SPR pH 6.0;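 note: surface plasmon resonance kinetics at 25 °C, diluted periplasmic extracts injected over immobilized ligand surfaces, 120 s association then 600–3600 s dissociation, running buffer containing 150 mM NaCl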
T1 construct: bought recombinant biotinylated protein (ACRO FCM-H82W4 or Immunitrack ITF01); also called hFcRn; hFcRn/hb2M
T1 sequence (chain, as listed by the source limits assumed, chain 1 of 2): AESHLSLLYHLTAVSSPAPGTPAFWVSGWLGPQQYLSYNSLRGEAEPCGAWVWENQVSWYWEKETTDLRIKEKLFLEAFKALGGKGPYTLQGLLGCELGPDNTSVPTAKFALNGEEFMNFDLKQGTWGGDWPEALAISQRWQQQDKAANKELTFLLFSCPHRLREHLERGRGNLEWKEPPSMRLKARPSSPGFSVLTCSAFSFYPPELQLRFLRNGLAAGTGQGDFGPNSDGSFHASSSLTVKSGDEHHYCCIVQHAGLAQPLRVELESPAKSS
T1 sequence (P61769 21-119 limits assumed, chain 2 of 2): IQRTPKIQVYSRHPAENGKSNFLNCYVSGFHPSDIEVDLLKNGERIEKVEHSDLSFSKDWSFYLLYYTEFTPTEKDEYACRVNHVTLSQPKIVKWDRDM
Reported koff values for a set of binders
Value expressed in s⁻¹; do not type the unit.

binder: T0263018B11 T57R (VHH, name in Kabat numbering, FLAG3-His6 tagged) VHH: EVQLVESGGGVVQPGGSLRLSCAASGFTFSSYAMYWVRQAPGKGLEWVSAISSGGGSRDYADSVKGRFTISRDNSKNTLYLQMNSLRPEDTALYYCAADTLYTSLTWYSYWGQGTLVTVSS
result-units: s⁻¹
koff: 0.00086

Any idea what koff was measured for T0263018B11 S52aG (VHH, name in Kabat numbering, FLAG3-His6 tagged) VHH: EVQLVESGGGVVQPGGSLRLSCAASGFTFSSYAMYWVRQAPGKGLEWVSAISGGGGSTDYADSVKGRFTISRDNSKNTLYLQMNSLRPEDTALYYCAADTLYTSLTWYSYWGQGTLVTVSS ?
0.00088
